# ASSAYED_SYSTEM: RBDSARS-CoV (SARS-CoV S protein residues 318-510, C-terminal His-tag) (SARS-CoV, UniProt P59594 318-510)
# RUN_DESCRIPTION: ELISA
pIC50: −log10 of the molar value.
Entries and their measured pIC50 follow.

Example entries begin here.
4P-61 (VHH) VHH: QVQLVESGGGLVQAGGSLRLSCAASGSTFNTRNIAWYRQAPGKQRELVAGITNAGATIYADSVKGRFTISRDNAKNTMYLQIDSLKPEDTAVYYCNRIVGTYPWGQGTQVTVSS :: 7.00 to 8.00
5p-2 (VHH) VHH: QVQLVESGGGLVQAGGSLRLSCAVSGRTGSRWPMGWFRQAPGKEREFVATISWSDSRTYYADSVKGRFTIARDNAKNTVFLQMASLKPEDTAVYYCAAAHGRVYGANWSSTNRYDYDSWGQGTQVTVSS :: 7.00 to 8.00

*Q* Report pIC50, nothing else, for this binder: 4P-1 (VHH) VHH: DVQLVESGGGLVQAGGSLRLSCAASGRTGSRYPMGWFRQAPGKEREFVATISWSDSRTYYADSVKGRFTISRDNAKNTVFLQMASLKPEDTAVYYCAAAHARVYGANWSSSNRYDYDSWGQGTQVTVSS
*A* 5.10 to 6.00
